MEASURED ON: Muscarinic acetylcholine receptor M1 (Rattus norvegicus) (UniProt P08482)
Sequence (P08482 whole entry, looked up): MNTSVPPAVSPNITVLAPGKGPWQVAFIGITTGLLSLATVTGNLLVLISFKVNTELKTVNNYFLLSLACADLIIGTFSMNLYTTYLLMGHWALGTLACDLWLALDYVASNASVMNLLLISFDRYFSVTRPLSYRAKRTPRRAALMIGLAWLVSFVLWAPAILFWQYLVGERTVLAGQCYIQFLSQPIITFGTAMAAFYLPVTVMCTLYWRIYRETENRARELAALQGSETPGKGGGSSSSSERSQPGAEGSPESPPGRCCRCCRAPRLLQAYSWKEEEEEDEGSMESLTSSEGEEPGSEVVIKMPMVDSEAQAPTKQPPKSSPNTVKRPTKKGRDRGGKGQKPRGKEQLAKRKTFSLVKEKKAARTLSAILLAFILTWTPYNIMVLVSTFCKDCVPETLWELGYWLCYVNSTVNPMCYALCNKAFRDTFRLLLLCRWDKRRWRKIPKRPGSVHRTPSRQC
METHOD DESCRIPTION: rat M1 muscarinic receptor antagonist potency, dose response, cell-based, calcium fluorescence (AID 859)
CONDITION SUMMARY: M1-expressing cells, antagonist mode vs EC80
Catalogue of IC50 values

Give the reported value of IC50 for this record: `Cc1ccc2nc(NC3=NCN(CCN4CCOCC4)CN3)nc(C)c2c1`
2.77 nM

----------
Listing: IC50 of selected compounds
MEASURED ON: UniProt P08482
METHOD DESCRIPTION: rat M1 muscarinic receptor antagonist potency, dose response, cell-based, calcium fluorescence (AID 859)
CONDITION SUMMARY: M1-expressing cells, antagonist mode vs EC80

Here are 3 compounds together with their reported answers.
[[record]]
compound = "CC[N+]1(C)CCCC(OC(=O)C(O)(c2ccccc2)c2ccccc2)C1 (stereo unspecified)"
obs_value = "15.9 nM"

[[record]]
compound = "CCN1C(=O)/C(=C\\N2CCCCCC2)SC1=S"
obs_value = "438 nM"

[[record]]
compound = "CN1CCC(OC(=O)C2c3ccccc3Oc3ccccc32)CC1"
obs_value = "9.27 nM"


Consider the compound O=C1CC(N2CCN(c3ccc(S(=O)(=O)N4CCOCC4)cc3)CC2)C(=O)N1Cc1ccccc1 (stereo unspecified) . State its measured IC50.
777 nM

Note IC50 for the compound shown: Cc1nc2c(o1)CCc1ccccc1C2N1CCN(C)CC1 (stereo unspecified)
46.4 nM

Answer with the recorded IC50 of `CCOc1nc(C#N)nc(N2CCCCC2)n1` only.
1350 nM

Please look at this compound and report its IC50: Cc1ccc2c(c1)NC(=O)C(CC(=O)Nc1ccc(CN3CCC(C)CC3)cc1)O2 (stereo unspecified)
290 nM

Kindly indicate its recorded IC50. Item: `CCOC(=O)Nc1ccc2c(c1)N(C(=O)N1CCN(C)CC1)c1ccccc1S2`
1410 nM

Retrieve IC50 measured for CCN(CCCCOC(=O)c1ccc(OC)c(OC)c1)C(C)Cc1ccc(OC)cc1 (stereo unspecified) and print it.
1160 nM

Please give measured IC50 of the following entry: OC(CCN1CCCC1)(c1ccccc1)C1CCCCC1 (stereo unspecified)
116 nM

Assign IC50 to the following record: `c1ccc(-c2cc(-c3nnc4sc(-c5ccccn5)nn34)[nH]n2)cc1`
414 nM
